system: HCT-15 colon; assay: NCI tumour cell line growth inhibition, 48 h
REPORTED_METRIC: TGI

>>> df
                                   molecule  measurement
0  C/C=C(\C)C(O)C(C)C(O)C/C=C(C)/C=C(\C)C/C(C)=C/C/C=C(\C)C(O)C(C)c1ccc(CCC)c(=O)o1 (stereo not drawn)      15.3 µM
1  NCCCC[C@H](N)C(=O)Nc1ccc(-c2nc3ccccc3s2)cc1      33.7 µM
2  NC(=O)Cc1nc2c(N)ncnc2n1C1OC(CO)C(O)C1O (stereo not drawn)     > 100 µM
3  COc1cc(-c2cc(O)c(-c3ccc4ccccc4n3)c(=O)[nH]2)cc(OC)c1OC     > 100 µM

Endpoint output: TGI of Oc1ccc2ccccc2c1N=Nc1ccsc1 . Value?
> 100 µM

Endpoint output: TGI of CO/N=C(\C)c1ccc(Nc2cc(-c3ccccc3)nc3ccc(OC)cc23)cc1 . Value?
11 µM

Endpoint output: TGI of CC(=O)c1c(C)[nH]c(-c2nc3ccc(N4CCN(C)CC4)cc3[nH]2)c1-c1ccc(N(C)C)cc1 . Value?
14.1 µM

Endpoint output: TGI of N=c1ccn(O)cc1/C=C1/C(=O)Nc2ccccc21 . Value?
> 100 µM

Endpoint output: TGI of CC(C)([NH-])CO.CC(C)([NH-])CO.[Cl][Cd][Cl] . Value?
41.4 µM

Endpoint output: TGI of Cc1c(N2CCN(C)CC2)nc2ccc(Cl)cc2c1-c1ccccc1 . Value?
40.7 µM

Endpoint output: TGI of COc1ccc2c(=O)cc(C(Cl)(Cl)Cl)oc2c1 . Value?
14.2 µM

Endpoint output: TGI of O=c1ncc(F)cn1C1OC(CO)C(O)C1O (stereo not drawn) . Value?
> 100 µM

Endpoint output: TGI of CC(C)O/N=C/c1cc(NC(=S)OC(C)C)ccc1Cl . Value?
> 66.1 µM
